# STUDY_TARGET: HLA-A*0203 (Homo sapiens, UniProt P04439, A173T/D140Y/D185E/D98H/E277Q/G131W/G231S/I119V/I121R/I166T/I218V/L180W/L300P/L318F/N151K/N90K/P208A/P217A/Q86G/Q94H/R138H/R169H/T345S)
# MEASUREMENT_PROTOCOL: HLA class I binding assay, purified HLA, inhibition of 125I-labelled probe peptide
# CONDITION_INFO: A*[…], A2 supermotif cross-reactive binding data
ASSAY_METRIC: pIC50
Numbers only, as −log10 of the molar value.

Solved entries:
// pIC50 lookup, key: CC(C)C[C@H](NC(=O)[C@H](CC(C)C)NC(=O)[C@H](Cc1c[nH]cn1)NC(=O)[C@H](CC(C)C)NC(=O)[C@H](CO)NC(=O)[C@@H](NC(=O)[C@H](CS)NC(=O)[C@H](CCC(N)=O)NC(=O)[C@H](CC(C)C)NC(=O)[C@@H](N)CO)C(C)C)C(=O)O [Peptide 1419.66]
7.15

Please report the recorded pIC50 for CC[C@H](C)[C@H](NC(=O)[C@H](CC(=O)O)NC(=O)[C@H](Cc1ccccc1)NC(=O)[C@@H](NC(=O)[C@H](C)N)[C@@H](C)O)C(=O)N[C@@H](CCC(=O)O)C(=O)N[C@@H](CO)C(=O)N[C@@H](CCCCN)C(=O)N[C@H](C(=O)O)C(C)C [Peptide 1418.30] .
7.36

Recorded pIC50 for CSCC[C@H](NC(=O)[C@H](CC(=O)O)NC(=O)[C@H](CC(N)=O)NC(=O)[C@H](CO)NC(=O)[C@H](CC(C)C)NC(=O)[C@H](CC(C)C)NC(=O)[C@@H](N)Cc1c[nH]cn1)C(=O)N[C@@H](CS)C(=O)N[C@H](C(=O)O)C(C)C [Peptide 1418.20] , please?
6.56

Next:
Given CC[C@H](C)[C@H](NC(=O)[C@H](CO)NC(=O)[C@@H](NC(=O)CN)C(C)C)C(=O)N[C@@H](Cc1c[nH]c2ccccc12)C(=O)N[C@@H](CC(N)=O)C(=O)N1CCC[C@H]1C(=O)N[C@H](C(=O)N[C@H](C(=O)O)C(C)C)[C@@H](C)CC [Peptide 60.0207] , state its recorded pIC50.
6.04

====

# STUDY_TARGET: HLA-A*6802 (Homo sapiens, UniProt P04439, A269V/D140Y/D185E/E176V/E277Q/E87N/F33Y/G231S/I121R/I166T/I218V/L180W/L300P/L318F/N151K/P208A/P217A/Q86R/R138H/R169H/S129P/T345S/V36M)
# MEASUREMENT_PROTOCOL: HLA class I binding assay, purified HLA, inhibition of 125I-labelled probe peptide
# CONDITION_INFO: A2 supermotif cross-reactive binding data; read-out: A*6802 nM
ASSAY_METRIC: IC50

I'd like to know its IC50. The molecule in question is CSCC[C@H](NC(=O)[C@H](Cc1ccccc1)NC(=O)[C@H](CCCCN)NC(=O)[C@@H](NC(=O)[C@@H](NC(=O)[C@@H](N)CCCCN)C(C)C)[C@@H](C)O)C(=O)N[C@@H](CC(C)C)C(=O)N[C@@H](CS)C(=O)N[C@H](C(=O)O)C(C)C [Peptide 60.0220]
> 10 µM

Recorded IC50 of CC[C@H](C)[C@H](NC(=O)[C@H](Cc1c[nH]c2ccccc12)NC(=O)[C@@H](NC(=O)[C@@H](NC(=O)[C@H](CO)NC(=O)[C@H](CC(C)C)NC(=O)[C@@H](NC(=O)[C@H](CC(C)C)NC(=O)[C@H](Cc1ccccc1)NC(=O)[C@@H](NC(=O)[C@@H](N)C(C)C)C(C)C)[C@@H](C)O)C(C)C)[C@@H](C)O)C(=O)O [Peptide 1419.25] , please.
> 10 µM

Please turn your attention to the following entry.
Quick one: IC50 for CC[C@H](C)[C@H](NC(=O)[C@H](CO)NC(=O)[C@@H](NC(=O)CN)C(C)C)C(=O)N[C@@H](Cc1c[nH]c2ccccc12)C(=O)N[C@@H](CC(N)=O)C(=O)N1CCC[C@H]1C(=O)N[C@H](C(=O)N[C@H](C(=O)O)C(C)C)[C@@H](C)CC [Peptide 60.0207] ?
> 10 µM

Data provenance is patent US20040037843A1.
